This listing pairs compounds with measured Residual rate.
Test: Stability evaluation of solution formulation (Experimental Example 2)
Type: physicochemical
Details: solution formulation, pH4.0, 1 week
Write the quantity with the unit trailing the number.

Worked cases, Residual rate given:
1) CNCCN(C)C(=O)Oc1cc(O)c2c(=O)cc(-c3ccccc3Cl)oc2c1[C@H]1CCN(C)C[C@H]1O [Comparative Example 14, reference compound] :: 86.7%
2) CCN(C[C@H]1CCCCN1)C(=O)Oc1cc(O)c2c(=O)cc(-c3ccccc3Cl)oc2c1[C@H]1CCN(C)C[C@H]1O [Example 2] :: 96.5%
3) CCCN(C[C@H]1CCCCN1)C(=O)Oc1cc(O)c2c(=O)cc(-c3ccccc3Cl)oc2c1[C@H]1CCN(C)C[C@H]1O [Example 6] :: 98.7%

Report Residual rate for CN1CC[C@H](c2c(OC(=O)N(C)CCN)cc(O)c3c(=O)cc(-c4ccccc4Cl)oc23)[C@H](O)C1 [Comparative Example 13, reference compound] please.
98.1%

And the next one, CCCN(C[C@@H]1CCCCN1)C(=O)Oc1cc(O)c2c(=O)cc(-c3ccccc3Cl)oc2c1[C@H]1CCN(C)C[C@H]1O [Example 5] ?
98.2%
